System: PPARg:RXRa 30nM:10nM, anti-RXR (NR concentration 30 nM, RXRa partner concentration 10 nM)
PROTOCOL_DESCRIPTION: PBM binding z-score (relative to random genomic background probes); higher = stronger binding; sequences stand for … in GC…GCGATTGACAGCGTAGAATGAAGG
Label yes when PBM binding z-score is at or above 1; anything below gets no.

- TAGCCTAGGTCATTGGGCCAGAATAGTACGCATC: yes
- TCATATAGGTAAATGCTAGGTGAAATTCCGATCT: yes
- ATATGTAGGTTATCGGGACATTCAGTTTGCGCAT: yes
- TAGCCTAGGTCATGGGCGAGTATACCACGCGAAC: no
- CCTTACGGGTCACGAGGTTAGAGCACGACGAGCG: yes
- GCTGCTAGGTCAGGTTGGTCAGATAACGGGTACG: no

Every entry's value here was drawn from the supplement of paper PMC6555819.
